biological target: H1047R PIK3CA enzyme (Homo sapiens, UniProt P42336, H1047R); test: ADP-Glo Biochemical PIK3CA Kinase Assay
Sequence (P42336 whole entry H1047R): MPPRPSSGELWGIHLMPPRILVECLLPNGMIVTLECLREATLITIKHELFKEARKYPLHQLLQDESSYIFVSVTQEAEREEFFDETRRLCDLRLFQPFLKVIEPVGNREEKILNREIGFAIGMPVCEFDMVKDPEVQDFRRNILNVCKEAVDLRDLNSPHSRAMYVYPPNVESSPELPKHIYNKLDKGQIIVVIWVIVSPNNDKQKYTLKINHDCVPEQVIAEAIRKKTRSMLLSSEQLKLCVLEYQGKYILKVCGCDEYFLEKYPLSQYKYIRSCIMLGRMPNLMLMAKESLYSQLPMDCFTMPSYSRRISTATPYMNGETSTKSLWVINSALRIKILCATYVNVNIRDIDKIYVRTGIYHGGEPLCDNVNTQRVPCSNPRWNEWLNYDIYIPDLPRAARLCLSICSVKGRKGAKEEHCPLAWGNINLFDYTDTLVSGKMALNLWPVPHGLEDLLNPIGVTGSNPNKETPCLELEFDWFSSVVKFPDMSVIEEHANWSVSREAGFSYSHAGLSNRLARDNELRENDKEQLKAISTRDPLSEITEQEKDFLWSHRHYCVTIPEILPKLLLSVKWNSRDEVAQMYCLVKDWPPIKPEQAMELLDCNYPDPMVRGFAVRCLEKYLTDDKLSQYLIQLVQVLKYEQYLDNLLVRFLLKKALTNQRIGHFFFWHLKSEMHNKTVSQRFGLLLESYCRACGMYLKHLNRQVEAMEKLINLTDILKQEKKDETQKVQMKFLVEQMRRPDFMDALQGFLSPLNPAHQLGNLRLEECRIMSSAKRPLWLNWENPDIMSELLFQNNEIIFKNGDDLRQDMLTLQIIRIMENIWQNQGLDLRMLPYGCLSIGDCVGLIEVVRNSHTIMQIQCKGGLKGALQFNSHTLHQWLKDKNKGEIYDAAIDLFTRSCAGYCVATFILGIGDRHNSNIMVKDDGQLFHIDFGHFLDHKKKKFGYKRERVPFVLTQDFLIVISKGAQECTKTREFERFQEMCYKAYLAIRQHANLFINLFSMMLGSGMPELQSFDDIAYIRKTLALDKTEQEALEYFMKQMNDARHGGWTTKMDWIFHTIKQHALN
Sequence (P27986 whole entry partner): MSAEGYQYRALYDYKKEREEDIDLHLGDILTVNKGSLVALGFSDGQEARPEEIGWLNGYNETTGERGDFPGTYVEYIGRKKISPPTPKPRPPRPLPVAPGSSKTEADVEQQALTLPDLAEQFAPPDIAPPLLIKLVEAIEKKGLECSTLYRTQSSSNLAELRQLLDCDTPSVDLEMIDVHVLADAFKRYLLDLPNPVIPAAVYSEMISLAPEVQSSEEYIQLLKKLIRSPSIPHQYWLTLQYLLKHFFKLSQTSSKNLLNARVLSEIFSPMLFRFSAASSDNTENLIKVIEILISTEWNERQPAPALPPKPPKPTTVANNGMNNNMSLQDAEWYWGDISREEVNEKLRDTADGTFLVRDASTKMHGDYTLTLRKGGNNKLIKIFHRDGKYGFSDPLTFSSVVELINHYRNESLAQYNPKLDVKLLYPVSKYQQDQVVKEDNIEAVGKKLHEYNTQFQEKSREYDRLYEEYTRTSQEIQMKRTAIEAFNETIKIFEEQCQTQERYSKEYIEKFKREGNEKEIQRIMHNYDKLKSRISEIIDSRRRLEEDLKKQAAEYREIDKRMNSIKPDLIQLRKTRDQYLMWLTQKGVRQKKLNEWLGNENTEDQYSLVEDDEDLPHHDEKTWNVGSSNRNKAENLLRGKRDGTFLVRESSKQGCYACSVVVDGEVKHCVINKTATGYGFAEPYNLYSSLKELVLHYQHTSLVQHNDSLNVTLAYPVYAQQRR

>  <compound>
O=C1N[C@H](c2cc(F)ccc2Cl)c2c(NC(=O)[C@H]3C[C@@H](O)C[C@@H](C(F)(F)F)C3)cc(Br)cc21 (single isomer, unassigned) [Compound I-2272]

>  <IC50>
10 to 100 µM

$$$$
>  <compound>
N#C/N=C(\Nc1ccc(F)cc1C(F)(F)F)Nc1cc(Br)cc2c1C(c1cc(F)ccc1Cl)NC2=O (centres unmarked) [Compound I-1502]

>  <IC50>
1 to 10 µM

$$$$
>  <compound>
Cc1ccccc1C1NC(=O)c2cc(CC(C)C)cc(NC(=O)c3cc(F)cc(C(F)(F)F)c3)c21 (centres unmarked) [Compound I-268]

>  <IC50>
≤ 0.1 µM

$$$$
>  <compound>
Cn1cc(C(=O)Nc2cccc3c2CNC3=O)c2ccccc21 [Compound I-403]

>  <IC50>
10 to 100 µM

$$$$
>  <compound>
O=C1NC[C@H](c2cc(NC(=O)c3cc(F)cc(C(F)(F)F)c3)c3c(c2)C(=O)N[C@@H]3c2cc(F)ccc2Cl)O1 (single isomer, unassigned) [Compound I-1558]

>  <IC50>
0.1 to 0.5 µM

$$$$
>  <compound>
O=C(Nc1cc(Br)cc2c1C(c1cccc(F)c1Cl)NC2=O)c1cc(F)cc(C(F)(F)F)c1 (centres unmarked) [Compound I-672]

>  <IC50>
≤ 0.1 µM

$$$$
>  <compound>
O=C(CC1CCC1)Nc1cc(-c2ccc3ncnn3c2)cc2c1C(c1cc(F)ccc1Cl)NC2=O (centres unmarked) [Compound I-1777]

>  <IC50>
10 to 100 µM

$$$$
>  <compound>
O=C1NC(c2cc(F)ccc2Cl)c2c(NC(=O)C3CCCC(O)(C(F)(F)F)C3)cccc21 (centres unmarked) [Compound I-2136]

>  <IC50>
10 to 100 µM

$$$$
>  <compound>
O=C(O)c1cc(-c2ccc3ncnn3c2)cc2c1C(c1cc(F)ccc1Cl)NC2=O (centres unmarked) [Compound I-1784]

>  <IC50>
10 to 100 µM

$$$$
>  <compound>
O=C(Nc1cc(N2CCCc3ncccc32)cc2c1C(c1cc(F)ccc1Cl)NC2=O)c1cc(F)cc(C(F)(F)F)c1 (centres unmarked) [Compound I-1227]

>  <IC50>
≤ 0.1 µM

$$$$
>  <compound>
O=C1NC(c2cc(F)ccc2Cl)c2c(NC(=O)C3CCC(O)(C(F)(F)F)CC3)cccc21 (centres unmarked) [Compound I-2155]

>  <IC50>
10 to 100 µM

$$$$
>  <compound>
O=C1N[C@@H](c2cc(F)ccc2Cl)c2c(NC(=O)N3C[C@](O)(C(F)(F)F)c4cc(F)ccc43)cc(C3COC3)cc21 (single isomer, unassigned) [Compound I-2655]

>  <IC50>
≤ 0.1 µM

$$$$
>  <compound>
N#Cc1ccc2c(c1)CCN2c1cc(NC(=O)c2cc(F)cc(C(F)(F)F)c2)c2c(c1)C(=O)NC2c1cc(F)ccc1Cl (centres unmarked) [Compound I-1263]

>  <IC50>
≤ 0.1 µM

$$$$
>  <compound>
Cn1cccc(-c2cc(NC(=O)c3cc(F)cc(C(F)(F)F)c3)c3c(c2)C(=O)NC3c2cc(F)ccc2Cl)c1=O (centres unmarked) [Compound I-901]

>  <IC50>
0.1 to 0.5 µM

$$$$
